Molecular target: T1, human tissue factor on cells (human, UniProt P13726 33-295)
T1 construct: cell-surface TF, transfected (HEK293T-humanTF) or endogenous (tumour lines, keratinocytes); the cell line is named under assay; also called HEK293T-humanTF; TF on BxPC3, primary human keratinocytes, NCI-H292, HCC1954, NCI-H1975
T1 sequence (P13726 33-295 limits assumed): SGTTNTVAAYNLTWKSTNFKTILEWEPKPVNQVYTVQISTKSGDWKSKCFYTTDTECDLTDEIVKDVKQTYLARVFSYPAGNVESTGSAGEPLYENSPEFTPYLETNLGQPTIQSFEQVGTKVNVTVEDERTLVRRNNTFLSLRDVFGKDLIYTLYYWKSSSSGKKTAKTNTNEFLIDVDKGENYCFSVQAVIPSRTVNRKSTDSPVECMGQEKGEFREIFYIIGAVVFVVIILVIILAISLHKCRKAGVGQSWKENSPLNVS
Experiment: flow cytometry on HEK293T-humanTF cells, one-site fit of MFI
MEASURED_ATTRIBUTE: Bmax (MFI)
Answers are plain numbers, in MFI.

1) mAb 48: aTF_2842-B01_HC1_Y180/F404TAG; aTF_2842-B01_LC3 (antibody, IgG1, V domains shown, non-natural amino acid (pAMF) at TAG sites Y180 and F404 (EU), * in the sequence, unconjugated full-length IgG1/kappa; also called 2842-B01 HC1/LC3) VH: QVQVVESGGGLVKPGGSLRLSCAASGFSISSYDMSWIRQAPGKGLEWIGIIGSNGRTYYADSVKGRFTISRNTNENTVYLQMNSLRAEDTAVYYCARGLYDGTGNIWGQGTLVTVSS VL: DIQMTQSPSSLSASVGDRVTITCQASQSVYGNNWLSWYQQKPGKAPKLLIYGASKLASGVPSRFSGSGSGTDFTLTISSLQPEDFATYYCQGTYYSGDWYFAFGGGTKVEIKR	318000

Take each entry in turn and give its Bmax (MFI).
1. mAb 49: aTF_2842-G04_HC2_Y180/F404TAG; aTF_2842-G04_LC2 (antibody, IgG1, V domains shown, non-natural amino acid (pAMF) at TAG sites Y180 and F404 (EU), * in the sequence, unconjugated full-length IgG1/kappa; also called 2842-G04 HC2/LC2) VH: QVQVQESGPGLVKPPGTLSLTCAVSGFSLSYYGVSWVRQPPGKGLEWIGTIDSSGRTYYNPSLKSRVTISNDNAPNTVSLKLSSVTAADTAVYYCARDFYGWNSGALDIWGQGTLVTVSS VL: DLQLTQSPSTLSASVGDRVTITCRASQSVYSNKYLSWYQQKPGKAPKLLIYKASTLASGVPSRFSGSGSGTEFTLTISSLQPDDFATYYCAAAYSDDSDTAFGQGTKVEIKR
2. mAb 37: aTF_2842-B01_Hc3_Y180/F404TAG pAzMeF; aTF_2842-B01_Lc2 (antibody, IgG1, V domains shown, pAzMeF at Y180 and F404 (EU), * in the sequence, unconjugated full-length IgG1/kappa, cell-free expressed; also called 2842-B01 HC3/LC2; 2842-B01-HC3/LC2 Y180/F404) VH: EVQLVESGGGLVQPGGSLRLSCAASGFSISSYDMSWVRQAPGKGLEWIGIIGSNGRTYYPDSVKGRFTISRDNSKNTVTLQMNSLRAEDTAVYYCARGLYDGTGNIWGQGTLVTVSS VL: ELVMTQSPPTLSLSPGERVTLSCRASQSVYGNNWLSWYQQKPGQAPRLLIYGASKLATSIPARFSGSGSGTQFTLTISSLQPEDFAVYYCQGTYYSGDWYFAFGQGTKVEIKR

244000
334000
